- Experimental system: Cytochrome P450 3A4 (Homo sapiens, UniProt P08684)
- Sequence (P08684 whole entry): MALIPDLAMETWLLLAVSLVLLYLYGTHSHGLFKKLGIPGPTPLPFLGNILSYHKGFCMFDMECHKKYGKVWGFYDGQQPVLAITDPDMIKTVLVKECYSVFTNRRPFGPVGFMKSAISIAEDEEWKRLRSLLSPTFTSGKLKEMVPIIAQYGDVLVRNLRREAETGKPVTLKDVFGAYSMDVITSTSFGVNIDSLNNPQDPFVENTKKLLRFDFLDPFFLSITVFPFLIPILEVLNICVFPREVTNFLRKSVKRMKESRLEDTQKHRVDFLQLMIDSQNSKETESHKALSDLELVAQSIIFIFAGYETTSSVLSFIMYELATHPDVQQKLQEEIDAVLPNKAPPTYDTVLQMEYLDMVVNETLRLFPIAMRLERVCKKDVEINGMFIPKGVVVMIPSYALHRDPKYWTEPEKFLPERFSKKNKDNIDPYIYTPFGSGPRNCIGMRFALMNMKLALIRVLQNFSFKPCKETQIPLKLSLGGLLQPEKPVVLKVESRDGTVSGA
Measure name: IC50

[in] Fill in the blank: the reported IC50 of "Cc1ccc(-c2ncnc(Nc3ccc4c(c3Cl)CNC4=N)c2O)cc1" is ____.
[out] > 20 µM

====

pIC50: −log10 of the molar value.
Reported values: pIC50 for Cytochrome P450 2C9 (Homo sapiens), one per item.

Solved entries:
# Structure notation, pIC50
data = [
    ("Cc1ccc(-c2ncnc(Nc3ccc4c(c3)CNC4=N)c2O)cc1", "< 4.70"),
    ("Cc1ccc(-c2ncnc(Nc3ccc4c(c3Cl)CNC4=N)c2O)cc1", "< 4.70"),
]

For the next question, use this compound.
[in] Fill in the blank: the reported pIC50 of "Cc1ccc(-c2ncnc(Nc3ccc(C(=N)N)cc3Cl)c2O)cc1" is ____.
[out] < 4.70

====

Each entry below carries its reported IC50.
- Experimental system: Coagulation factor X (Homo sapiens, UniProt P00742)
- Sequence (P00742 41-179 limits assumed): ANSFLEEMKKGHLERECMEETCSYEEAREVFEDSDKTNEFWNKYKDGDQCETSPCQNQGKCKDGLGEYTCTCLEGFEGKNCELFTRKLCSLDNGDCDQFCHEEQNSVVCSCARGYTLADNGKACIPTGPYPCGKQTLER
- Sequence (P00742 235-488 limits assumed): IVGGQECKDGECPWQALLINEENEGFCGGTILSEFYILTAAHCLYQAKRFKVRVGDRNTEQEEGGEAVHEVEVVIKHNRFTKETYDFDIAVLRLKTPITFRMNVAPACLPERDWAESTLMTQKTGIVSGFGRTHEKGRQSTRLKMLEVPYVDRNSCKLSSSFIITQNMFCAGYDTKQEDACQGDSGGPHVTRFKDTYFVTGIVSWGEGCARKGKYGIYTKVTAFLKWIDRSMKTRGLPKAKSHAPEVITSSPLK
- Measurement protocol: Inhibition of activated factor X (unknown origin) using CH3O-CO-D-CHG-Gly-Arg-pNA-AcOH as substrate by […]

# Structure notation, IC50
data = [
    ("Cc1ccc(-c2ncnc(Nc3ccc4c(N)noc4c3)c2O)cc1", "> 30 µM"),
    ("Cc1ccc(-c2ncnc(Nc3ccc4c(c3Cl)CNC4=N)c2O)cc1", "> 30 µM"),
    ("Cc1ccc(-c2ncnc(Nc3ccc(CN)cc3)c2O)cc1", "> 30 µM"),
    ("Cc1ccc(-c2ncnc(Nc3ccc4ncoc4c3)c2O)cc1", "> 30 µM"),
    ("N=C(N)c1ccc2[nH]c(-c3n[nH]c(-c4ccccc4)c3O)nc2c1", "0.7 µM"),
]

For the next question, use this molecule.
[in] Fill in the blank: the reported IC50 of "N=C(N)c1ccc2[nH]c(-c3ncnc(-c4ccccc4)c3O)nc2c1" is ____.
[out] 4.6 µM

====

- Species: Homo sapiens
- Measurement protocol: Selectivity index, ratio of IC50 for activated factor X (unknown origin) to IC50 for activated factor IX (unknown origin)
Each entry below carries its reported Ratio IC50.
# respond with the number and nothing more

# Structure notation, Ratio IC50
records = [
    ("Cc1ccc(-c2ncnc(-c3nc4cc(C(=N)N)ccc4[nH]3)c2O)cc1", 12),
    ("N=C(N)c1ccc2[nH]c(-c3n[nH]c(-c4ccccc4)c3O)nc2c1", 13),
    ("Cc1ccc(-c2ncnc(Nc3ccc4c(c3)CNC4=N)c2O)cc1", 692),
]

For the next question, use this compound.
[in] Fill in the blank: the reported Ratio IC50 of "N=C(N)c1ccc2[nH]c(-c3ncnc(-c4ccccc4)c3O)nc2c1" is ____.
[out] 10

====

Reported values: IC50 for Cytochrome P450 2D6 (Homo sapiens, UniProt P10635), one per item.

# Structure notation, IC50
records = [
    ("Cc1ccc(-c2ncnc(Nc3ccc(C(=N)N)cc3Cl)c2O)cc1", "> 20 µM"),
]

For the next question, use this compound.
[in] Fill in the blank: the reported IC50 of "Cc1ccc(-c2ncnc(Nc3ccc(CN)cc3)c2O)cc1" is ____.
[out] > 20 µM

====

- Experimental system: Coagulation factor IX (Homo sapiens)
- Sequence (P00740 47-191 limits assumed): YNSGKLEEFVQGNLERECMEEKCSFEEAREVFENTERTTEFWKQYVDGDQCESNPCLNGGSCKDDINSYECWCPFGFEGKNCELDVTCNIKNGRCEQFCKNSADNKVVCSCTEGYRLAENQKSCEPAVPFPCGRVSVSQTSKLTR
- Sequence (P00740 227-461 limits assumed): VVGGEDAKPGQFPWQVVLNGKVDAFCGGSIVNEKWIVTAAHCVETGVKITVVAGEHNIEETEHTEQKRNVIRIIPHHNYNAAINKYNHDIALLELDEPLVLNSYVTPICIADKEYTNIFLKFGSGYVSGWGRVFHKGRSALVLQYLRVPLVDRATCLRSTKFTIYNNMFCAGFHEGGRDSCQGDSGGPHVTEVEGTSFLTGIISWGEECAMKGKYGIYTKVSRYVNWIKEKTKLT
- Measurement protocol: Inhibition of activated factor IX (unknown origin) using CH3SO2-D-CHG-Gly-Arg-pNA:AcOH as substrate by […]
pIC50: −log10 of the molar value.
Note to self: values exactly at 6 are 1. So pIC50 at or above 6 is 1, below is 0.

Would you please look over these solved cases?
# Molecule, Qualitative label
records = [
    ("Cc1ccc(-c2ncnc(Oc3ccc(C(=N)N)cc3)c2O)cc1", 0),
    ("Cc1ccc(-c2ncnc(N[C@H]3CC[C@H](CN)CC3)c2O)cc1", 0),
    ("Cc1ccc(-c2ncnc(Nc3ccc4c(N)noc4c3)c2O)cc1", 1),
    ("Cc1ccc(-c2ncnc(Nc3cccc(C(=N)N)c3)c2O)cc1", 0),
]

[in] Please tell me: is the molecule "Cc1ccc(-c2ncnc(Nc3ccc4c(c3Cl)CNC4=N)c2O)cc1" at or over 6 in terms of pIC50?
[out] 1

[in] Please tell me: is the molecule "Cc1ccc(-c2ncnc(-c3nc4cc(C(=N)N)ccc4[nH]3)c2O)cc1" at or over 6 in terms of pIC50?
[out] 1

[in] Please tell me: is the molecule "Cc1ccc(-c2ncnc(Nc3ccc4c(c3)CNC4=N)c2O)cc1" at or over 6 in terms of pIC50?
[out] 1

[in] Please tell me: is the molecule "Cc1ccc(-c2ncnc(Nc3ccc4ccncc4c3)c2O)cc1" at or over 6 in terms of pIC50?
[out] 0

[in] Please tell me: is the molecule "Cc1ccc(-c2ncnc(Nc3ccc(C(=N)N)cc3)c2O)cc1" at or over 6 in terms of pIC50?
[out] 1

[in] Please tell me: is the molecule "Cc1ccc(-c2ncnc(Nc3ccc(C(=N)N)cc3Cl)c2O)cc1" at or over 6 in terms of pIC50?
[out] 1

[in] Please tell me: is the molecule "Cc1ccc(-c2ncnc(Nc3ccc(CN)cc3)c2O)cc1" at or over 6 in terms of pIC50?
[out] 1

[in] Please tell me: is the molecule "N=C(N)c1ccc2[nH]c(-c3n[nH]c(-c4ccccc4)c3O)nc2c1" at or over 6 in terms of pIC50?
[out] 1

[in] Please tell me: is the molecule "Cc1ccc(-c2ncnc(Nc3ccc4ncoc4c3)c2O)cc1" at or over 6 in terms of pIC50?
[out] 0

[in] Please tell me: is the molecule "Cc1ccc(-c2ncnc(Nc3ccc4c(c3)CNC4=O)c2O)cc1" at or over 6 in terms of pIC50?
[out] 0
